- TESTED ON: recombinant human serotonin receptor 5-HT2A (Homo sapiens, UniProt P28223)
- Construct: expressed in transfected cells; method B: loaded with Ca2+ dye
- Sequence (P28223 whole entry): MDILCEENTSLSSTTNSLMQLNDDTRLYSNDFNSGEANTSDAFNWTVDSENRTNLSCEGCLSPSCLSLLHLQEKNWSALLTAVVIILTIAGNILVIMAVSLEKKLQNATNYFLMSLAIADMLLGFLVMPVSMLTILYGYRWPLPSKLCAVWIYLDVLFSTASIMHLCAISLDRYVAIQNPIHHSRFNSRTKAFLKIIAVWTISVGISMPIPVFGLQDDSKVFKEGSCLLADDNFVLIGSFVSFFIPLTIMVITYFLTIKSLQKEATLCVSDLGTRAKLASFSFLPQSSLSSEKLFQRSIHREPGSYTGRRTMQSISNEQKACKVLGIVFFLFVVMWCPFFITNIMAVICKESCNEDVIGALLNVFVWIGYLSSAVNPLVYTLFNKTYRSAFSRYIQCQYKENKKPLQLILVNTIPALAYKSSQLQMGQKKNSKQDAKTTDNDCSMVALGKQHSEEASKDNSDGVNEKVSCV
- METHOD: 5-HT2A antagonist Ca2+ assay in CHO-K1 cells (method A aequorin luminescence / method B FLIPR fluorescence)
- Type: cell-based
- CONDITION SUMMARY: antagonist mode vs EC80 of reference agonist, method A or B, read-out: 5HT2A IC50
Parameter log10 IC50: see the listing below.
ASSAY ENDPOINT: log10 IC50 (log10 of the value in nM)

> print(dat)
                                   compound  readout.value
1  c1ccc2c(c1)CCC1(CCN(CCC3COCc4ccccc43)CC1)O2 (centres unmarked)           2.11
2  CC1Cc2ccccc2C(=O)N1CCN1CCC(Oc2cccc(Cl)c2)CC1 (centres unmarked)           2.61
3      COc1cccc(CN2CCC3(CCc4ccccc4O3)CC2)c1           2.84
4  COc1ccc2c(c1)C(CN1CCC[C@H](Oc3ccc(F)cc3)C1)CC2 (some centres unmarked)           3.60
5  c1ccc2c(c1)CCC2CN1CCC2(CCc3ncccc3O2)CC1 (centres unmarked)           0.60
6  CC(CN1CCc2ccccc2C1=O)N1CCC(Oc2ccc(F)cc2)CC1 (centres unmarked)           2.75
7  OC1(CN2CC[C@@H](Oc3ccc(F)cc3)C2)COCc2ccccc21 (some centres unmarked)           2.78
8  c1ccc(N2C[C@@H]3CC[C@H]2CN3CCC2COCc3ccccc32)cc1 (some centres unmarked)           3.72

----------
- TESTED ON: recombinant human serotonin receptor 5-HT2A (Homo sapiens)
- Construct: expressed in transfected cells; method B: loaded with Ca2+ dye
- METHOD: 5-HT2A antagonist Ca2+ assay in CHO-K1 cells (method A aequorin luminescence / method B FLIPR fluorescence)
- Format: cell-based
- CONDITION SUMMARY: antagonist mode vs EC80 of reference agonist, method A or B, read-out: 5HT2A IC50
- Description: The methods utilized to assess the inhibitory activity of compounds on recombinant human serotonin receptor 5-HT2A was based upon previously published approaches [Jerman J C, Brough S J, Gager T, Wood M, Coldwell M C, Smart D, Middlemiss D N. Pharmacological characterisation of human 5-HT2 receptor subtypes. European Journal of Pharmacology 2001 Feb. […]
Each record gets a class by IC50: low-valued: < 90 nM; mid-valued: ≥ 90 nM and < 200 nM; high-valued: ≥ 200 nM

> print(dat)
                                    compound  label.class
 1  COc1ccc2c(c1)C(CN1CCC(Oc3cccc(C)n3)CC1)CC2 (centres unmarked)   mid-valued
 2  Fc1ccc(OC2CCN(CCC3CCCCO3)CC2)cc1 (centres unmarked)   mid-valued
 3  O[C@H](COC1CCCCC1)CN1CC2(CC(c3ccccc3)CO2)C1 (some centres unmarked)   mid-valued
 4  c1cnc(OC2CCN(CC3CCc4ccccc43)CC2)nc1 (centres unmarked)   low-valued
 5  O=C1c2ccc(Br)cc2CCCN1CCN1CCC(Oc2ccc(F)cc2)CC1   low-valued
 6  COc1ccc2c(c1)C(CN1CC[C@H](Oc3ccccc3OC)C[C@@H]1C)CC2 (some centres unmarked)  high-valued
 7  OC(COC1CCCCC1)CN1C[C@@H]2C[C@H]1CN2c1ccccc1 (some centres unmarked)  high-valued
 8  CC1(C)Oc2ccccc2C1CN1CCC(Oc2ccccc2F)CC1 (centres unmarked)  high-valued
 9  OC(COC1CCCCC1)CN1CC[C@H]2C[C@@H]1CN2c1ccccc1 (some centres unmarked)  high-valued
10        COc1cccc(OCCN2CCC(Oc3ccccc3)CC2)c1   mid-valued
11  COc1ccccc1O[C@H]1CCN(CC2Cc3ccccc3C2)[C@@H](C)C1   low-valued
12  CC1(OCC(O)CN2CCN(c3ccccc3)CC2)COc2ccccc21 (centres unmarked)  high-valued
13  CC1(C)Oc2ccccc2C1CN1CCC(Oc2ccc(F)cc2)CC1 (centres unmarked)   mid-valued
14  COc1ccc2c(c1)C(CN1CCC(OCc3ccccc3Cl)CC1)CC2 (centres unmarked)   low-valued
15  Nc1ccc2c(c1)C(CN1CCC(Oc3ccc(F)cc3)CC1)CC2 (centres unmarked)   low-valued
16   O[C@@H](COC1CCCCC1)CN1CCC(Oc2ccccc2)CC1   low-valued
